target-or-test-system: Rat RGMa-His (rat) (UniProt D4A188)
protocol-summary: BIAcore; Ab captured on CM5 chip via anti-hIgG Fc Ab, antigen injected; 1:1 Langmuir fit
parameter: Kd (nM)
Write the value in nM as a bare number.

h5F9.AM9 (antibody, V domains shown, also called RGMA-h5F9AM.9; RGMA-h5F9pJP297/pJP 299 hIgG1/K mut) VH: EVQLVESGGGVVQPGRSLRLSCAASGFTFSNYGMNWVRQAPGKGLEWVAMIYYDSSEKHYADSVKGRFTISRDNSKNTLYLQMNSLRAEDTAVYYCARGTTPDYWGQGTMVTVSS VL: DVVLTQSPLSLPVTLGQPASISCRSSQSLADSDGDTFLHWFQQRPGQSPRLLIYAVSHRFSGVPDRFSGSGSGTDFTLKISRVEAEDVGVYYCFQATHDPVTFGQGTKLEIK    0.31

Dear colleague, please send me the reported Kd for humanized antibody 5F9.23 (antibody, V domains shown, Humanized parental antibody; also called h5F9.23; H5F9.23*) VH: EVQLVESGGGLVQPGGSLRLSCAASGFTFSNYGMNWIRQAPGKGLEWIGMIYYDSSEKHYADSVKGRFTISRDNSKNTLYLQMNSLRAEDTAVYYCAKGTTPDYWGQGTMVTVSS VL: DVVLTQSPLSLPVTLGQPASISCRSSQSLEYSDGYTFLEWFQQRPGQSPRLLIYEVSNRFSGVPDRFSGSGSGTDFTLKISRVEAEDVGVYYCFQATHDPLTFGQGTKLEIKR when you can.
2.1

From: patent EP4817631A2
